Experiment: NCI Yeast Anticancer Drug Screen. Data for the mec2-1 strain (AID 157)
Settings: S. cerevisiae mec2-1 strain, at 50.0 µM (retest, dose inferred, filed as 5.0), stronger effect = higher value
Method: Growth inhibition of yeast strains with defined genetic alterations is measured as a screen for potential anti-cancer activity. Selected strains with alterations in DNA damage repair or cell cycle control were exposed to compounds and growth inhibition was measured relative to vehicle treated controls. The strain used in this assay is mec2-1
Compounds without any hit were thinned out: in the full panel of roughly 79,000, 15% have a hit. Activity calls are given as the source filed them. Cut-off read from the data, not from the text of the source: active = growth inhibition above about 70%; inactive = the rest.
measured.attribute: growth inhibition

1) CCOC(=O)C(Cc1c2ccccc2cc2ccccc12)(NC(C)=O)C(=O)OCC ... 27% (inactive)

Please report the recorded growth inhibition for CC(/C=C/c1ccc([N+](=O)[O-])o1)=N/N1CC(CN2CCOCC2)OC1=O (stereo not drawn) .
90% (active)

Do the same for "NCCOc1ccc(/C(=C(/Cl)c2ccccc2)c2ccccc2)cc1" please
99% (active)

Do the same for "COc1cc([N+](=O)[O-])c2ncccc2c1Br" please
16% (inactive)

Do the same for "CC(=O)N1C=Cc2c(c(C)c3c([nH]c4ccccc43)c2C)C1" please
84% (active)

Do the same for "CC(C)OC(=O)NNc1cccc(Cl)c1" please
96% (active)

Do the same for NC(CS)C(=O)NCCNc1ccc(NCCNC(=O)C(N)CS)c2c1C(=O)c1c(O)ccc(O)c1C2=O (stereo not drawn) please
89% (active)

Do the same for COc1ccc(C(C)c2cc3c(cc2OC(C)O)OCO3)cc1 (stereo not drawn) please
31% (inactive)

Do the same for "O=C1c2cccc3cccc(c23)C(=O)N1CCNCCN1C(=O)c2cccc3cccc(c23)C1=O" please
4% (inactive)

Do the same for "COc1c2c(c3c(c1CCC(=O)O)OC(C)(C)C=C3)OC(C)(C)C=C2" please
49% (inactive)

Do the same for CC(=O)/C(=C\c1ccc(Cl)c(Cl)c1)C(=O)C(C)CN(C)C (stereo not drawn) please
76% (active)

Do the same for "Nc1cc(Cl)ccc1Nc1ccccc1" please
99% (active)

Do the same for "O=C1Oc2ccccc2C(=O)/C1=C/N1C(=O)N/C(=C\c2ccccc2Br)C1=O" please
5% (inactive)

----------
Test: NCI Yeast Anticancer Drug Screen. Data for the rad18 strain (AID 177)
Conditions: S. cerevisiae rad18 mutant growth inhibition; at 11.0 µM; stronger effect = higher value
This is part of a sample that, as a whole, favours compounds with a hit. Of some 79,000 tested, about 15% had one in any assay.
measured.attribute: growth inhibition (%)
Express your answer in %, writing the number without its unit.

These solved cases illustrate the format of a correct answer.
1) O=Cc1ccccc1C=O ... 0
2) CCC(OC(C)=O)C1CC(C(C)C)CCC1C (stereo not given) ... 4

Please report the recorded growth inhibition for "Fc1cc(F)c(F)c(S)c1F" .
-12

----------
growth inhibition by entry:
Assay: NCI Yeast Anticancer Drug Screen. Data for the wt1 strain (AID 149);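 note: 0% = growth of vehicle-treated wt1 cultures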
Conditions: S. cerevisiae wt1 strain (SPY 50644) growth inhibition; at 11.0 µM; stronger effect = higher value
This is part of a sample that, as a whole, favours compounds with a hit. Of some 79,000 tested, about 15% had one in any assay.
Express your answer in %, writing the number without its unit.

1) CCOC(=O)Nc1ccc(C)c(NC(=O)OCC)c1 ... 12

Please report the recorded growth inhibition for "C[n+]1c(-c2ccc(/C=N/NC(=O)c3ccc(C(=O)N/N=C/c4ccc(-c5cn6ccccc6[n+]5C)cc4)cc3)cc2)cn2ccccc21" .
26

Do the same for "OC1(C#CI)CCCCC1" please
96

Do the same for "CN(C)/C(=N/C(=S)Nc1ccccc1)SCc1ccccc1" please
0

Do the same for "Clc1ccc(/C(=C\c2ccccc2)Cn2ccnc2)cc1" please
28

Do the same for "CCCCCCNCCCNc1c2cc(OC)ccc2nc2cccc([N+](=O)[O-])c12" please
9

Do the same for "O=C(O)c1c2ccc(Cl)cc2nc2[nH]c(=O)[nH]c(=O)c12" please
-44

Do the same for "CC(C)NCCCNc1c2ccccc2nc2cccc([N+](=O)[O-])c12" please
88
